test system: RAW-Dual (murine macrophage reporter line); assay: IRF reporter (Lucia luciferase) activity fold change vs agonist alone; higher = enhanced IRF activity; conditions: modulator concentration 10 µM; agonist: MPLA […]
Exercise: for every item that follows, state its recorded IRF reporter.
Give bare numbers.

Examples with their reported IRF reporter follow.
# SMILES, IRF reporter
measured = [
    ("Cc1nc2sccn2c(=O)c1CCN1CCC(=C(c2ccc(F)cc2)c2ccc(F)cc2)CC1", 1.01),
    ("O=C(NCCN1CCOCC1)c1cc2nc(-c3ccccc3)cc(C(F)(F)F)n2n1", 1.01),
]

Then this compound:
# input Name the reported IRF reporter value associated with the compound COc1c(O)cc(O)cc1O
# output 1.02

---

test system: RAW-Dual (murine macrophage reporter line); assay: viability score (confluency relative to resting cells, overnight) (fraction); higher = more viable, active = viable (0.7 or more); conditions: modulator concentration 10 µM
QUANTITY KIND: viability score
Answers are plain numbers.

# COMPOUND, viability score
rows = [
    ("COc1cccc2c1C(=O)c1c(O)c3c(c(O)c1C2=O)C[C@@](O)(C(=O)CO)C[C@@H]3O[C@H]1C[C@H](N)[C@@H](O)[C@H](C)O1.Cl", 0.105),
]

Provide viability score values for the following items, in order.
1. O=S(=O)(c1cccc2ccccc12)n1cnc2ccccc21
2. O=C(C=Cc1ccc2c(c1)OCO2)NCc1ccccn1
3. O=C(NC1CCC(Oc2ncc(F)cn2)CC1)c1cccc(F)c1 (centres undefined)
4. C[C@H](Oc1cc(-c2cnn(C3CCNCC3)c2)cnc1N)c1c(Cl)ccc(F)c1Cl
5. Br.COc1ccc(C2=NN(c3nc(-c4ccc(OC)c(F)c4)cs3)C(c3ccc(OC)cc3)C2)cc1 (centres undefined)
6. CCN(CC)CCNC(=O)c1ccc(N)cc1.Cl
7. COc1cc(OC)cc(C(=O)N2CCN(c3ccc(Nc4cccc(C)n4)nn3)CC2)c1

# output
1. 1.01
2. 0.994
3. 1.01
4. 0.998
5. 1.01
6. 0.993
7. 0.996

List viability score for every entry below, keeping the order given.
1. CC(=NOCON=C(C)c1ccc(Cl)c(Cl)c1)c1ccc(Cl)c(Cl)c1
2. COc1cc(C(=O)Nc2ccc(-c3ccc(N4CCC(C)CC4)nn3)cc2)cc(OC)c1OC

# output
1.01
0.913

The following compounds each have a reported value; give each one's viability score.
1. CC(C)(C)C1(O)CC(C(F)(F)F)=NN1C(=O)c1ccc([N+](=O)[O-])cc1 (centres undefined)
2. O=C(CSc1nnnn1-c1ccccc1)NC12CC3CC(CC(C3)C1)C2
3. Cc1sc2ncnc(Nc3ccc(F)cc3)c2c1C
4. Cc1nc(-c2ccc(OCC(C)C)c(C#N)c2)sc1C(=O)O

# output
1. 0.941
2. 1.02
3. 0.981
4. 1

---

test system: RAW-Dual (murine macrophage reporter line); assay: IRF reporter (Lucia luciferase) activity fold change vs agonist alone; higher = enhanced IRF activity; conditions: modulator concentration 10 µM; agonist: 3'3'-cGAMP 10 ug/mL
For each record, write down the corresponding IRF reporter.

Some entries whose results are on file:
# COMPOUND, ASSAYED TARGET, IRF reporter
measured = [
    ("Cc1oncc1C(=O)NCCn1nc(C(F)(F)F)cc1C1CC1", "RAW-Dual (murine macrophage reporter line)", 0.972),
    ("CS(=O)(=O)N(CC(=O)NC1CC1)c1cccc2ccccc12", "RAW-Dual (murine macrophage reporter line)", 1),
    ("Br.O=S(=O)(c1ccc(-c2csc(Nc3ccc(Br)cc3)n2)cc1)N1CCCC1", "RAW-Dual (murine macrophage reporter line)", 1.03),
    ("O=C(C1COCC(=O)N1Cc1ccccc1)N1CCN(c2cccc(Cl)c2)CC1 (centres undefined)", "RAW-Dual (murine macrophage reporter line)", 1.01),
    ("CC(C)(C(=O)c1cccnc1)c1cccnc1", "RAW-Dual (murine macrophage reporter line)", 0.995),
]

Please state IRF reporter for every compound in the list that follows.
1. Nc1nccs1
2. O=C(CSc1nc2c(c(=O)n1-c1ccccc1)SCC2)N1CCN(c2ccccc2)CC1

# output
0.89
1.15

Provide IRF reporter values for the following items, in order.
1. NC(=O)c1ncn(C2OC(CO)C(O)C2O)n1 (centres undefined)
2. CN1CCN(C(CNC(=O)c2ccccc2Br)c2ccc(F)cc2)CC1 (centres undefined)
3. Cc1ccc(-n2ncnc2-c2ccccc2C)cc1Cl

# output
[1.02, 1.03, 0.777]

Field: IRF reporter. Fill in for each record below.
1. C=CC(=O)Nc1cccc(Nc2nc(Nc3ccc(N4CCN(C(C)=O)CC4)cc3OC)ncc2C(F)(F)F)c1
2. COc1cccc(NC(=O)CN(c2cccc(Br)c2)S(C)(=O)=O)c1
3. O=c1ccc(-c2ccncc2)nn1CC1CCN(CC(F)(F)F)CC1
4. CCOc1ccc(N2CCN(CC(=O)O)C2=O)cc1
5. CC(=O)c1cc2c(o1)C(=O)c1ccccc1C2=O

# output
[0.0805, 0.848, 0.858, 0.917, 0.995]

I would be grateful if you could provide IRF reporter for each of the following entries.
1. CC(C)(C)c1ccc(-c2nc(-c3cccc([N+](=O)[O-])c3)no2)cc1
2. COc1ccc(C(C)=NNC(=O)Nc2ccccc2)c(OC)c1
3. CNCC[C@H](Oc1cccc2ccccc12)c1cccs1.Cl
4. c1ccc(-n2nnnc2SCc2ccc3c(c2)OCO3)cc1

# output
1: 1.02; 2: 1.02; 3: 1.41; 4: 0.785
